tested on: PCSK9 gene; assay: PCSK9 gRNA/SpCas9 editing in primary human hepatocytes (Tables 2, 4); format: cell-based; details: 100 ng/RNA/mL; SpCas9 mRNA MS002 1:1 by weight
In the oligonucleotide strings, read from the 5' end, every base follows the letter of its sugar. An asterisk marks phosphorothioate; unmarked linkages are phosphodiester. Other units and linkages are bracketed, terminal groups are in braces. A string of capitals states the bases alone. m = 2'-O-methyl; r = 2'-OH (RNA)
Quantity Measured: Human Primary Hepatocyte Editing % 100 (%)

{"Molecule": "GA211: PCSK9 gRNA; protospacer TGCGCGTGCTCAACTGCCAA (SEQ ID NO: 205) (nucleic acid, sugars from the 5' end m3 r94 m3, linkages s3 o93 s3 (s phosphorothioate, o phosphodiester), T or U not given here) guide: UGCGCGUGCUCAACUGCCAAGUUUUAGAGCUAGAAAUAGCAAGUUAAAAUAAGGCUAGUCCGUUAUCAACUUGAAAAAGUGGCACCGAGUCGGUGCUUUU", "Observed Value": 1.31}
{"Molecule": "GA210: PCSK9 gRNA; protospacer CTGCGCGTGCTCAACTGCCA (SEQ ID NO: 204) (nucleic acid, sugars from the 5' end m3 r94 m3, linkages s3 o93 s3 (s phosphorothioate, o phosphodiester), T or U not given here) guide: CUGCGCGUGCUCAACUGCCAGUUUUAGAGCUAGAAAUAGCAAGUUAAAAUAAGGCUAGUCCGUUAUCAACUUGAAAAAGUGGCACCGAGUCGGUGCUUUU", "Observed Value": 0.04}
{"Molecule": "GA184: PCSK9 gRNA; protospacer ATGGAAGACATGCAGGATCT (SEQ ID NO: 178) (nucleic acid) guide: mA*mU*mG*rGrArArGrArCrArUrGrCrArGrGrArUrCrUrGrUrUrUrUrArGrArGrCrUrArGrArArArUrArGrCrArArGrUrUrArArArArUrArArGrGrCrUrArGrUrCrCrGrUrUrArUrCrArArCrUrUrGrArArArArArGrUrGrGrCrArCrCrGrArGrUrCrGrGrUrGrCrU*mU*mU*mU", "Observed Value": 2.65}
